System: Methicillin-resistant Staphylococcus aureus (MRSA)
ASSAY: MRSA killing by CFU counting after 4 h incubation
CONDITIONS USED: Table 2; antibiotic at MIC value + CBD 565 μM, 4 hours
EXPERIMENTAL ENDPOINT: Percentage death of MRSA cells, Antibiotics + CBD (565 μM) (%)
// units = %; emit number, no label

Recorded results for 4 compounds are shown here.
INSERT INTO assay_data (chemical_smiles, assay_result) VALUES
  ('O=C(N[C@H](CO)[C@H](O)c1ccc([N+](=O)[O-])cc1)C(Cl)Cl', 58),
  ('CO[C@H]1/C=C/O[C@@]2(C)Oc3c(C)c(O)c4c(O)c(c(/C=N/N5CCN(C)CC5)c(O)c4c3C2=O)NC(=O)/C(C)=C\C=C\[C@H](C)[C@H](O)[C@@H](C)[C@@H](O)[C@@H](C)[C@H](OC(C)=O)[C@@H]1C', 73),
  ('CN(C)[C@@H]1C(O)=C(C(N)=O)C(=O)[C@@]2(O)C(O)=C3C(=O)c4c(O)cccc4[C@@](C)(O)[C@H]3C[C@@H]12', 42),
  ('O=C(O)c1cn(C2CC2)c2cc(N3CCNCC3)c(F)cc2c1=O', 54);

Then this compound:
Form field Percentage death of MRSA cells, Antibiotics + CBD (565 μM) for item CN[C@H](CC(C)C)C(=O)N[C@H]1C(=O)N[C@@H](CC(N)=O)C(=O)N[C@H]2C(=O)N[C@H]3C(=O)N[C@H](C(=O)N[C@H](C(=O)O)c4cc(O)cc(O)c4-c4cc3ccc4O)[C@H](O)c3ccc(c(Cl)c3)Oc3cc2cc(c3O[C@@H]2O[C@H](CO)[C@@H](O)[C@H](O)[C@H]2O[C@H]2C[C@](C)(N)[C@H](O)[C@H](C)O2)Oc2ccc(cc2Cl)[C@H]1O on Methicillin-resistant Staphylococcus aureus (MRSA): 61
